Every entry's value here was drawn from the RNAGym collection of RNA variant scans (doi:10.1021/acssynbio.7b00057).

B1: Pistol ribozyme (parent)
chain: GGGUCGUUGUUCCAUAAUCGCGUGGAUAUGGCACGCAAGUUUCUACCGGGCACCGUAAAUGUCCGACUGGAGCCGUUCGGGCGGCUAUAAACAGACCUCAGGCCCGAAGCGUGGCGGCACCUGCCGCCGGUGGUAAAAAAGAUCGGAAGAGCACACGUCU

variants of: B1; experiment: aptazyme ON/OFF ratio, guanine; higher = stronger switching; co-transcriptional cleavage with and without guanine
Readout type: aptazyme ON/OFF ratio
Number, no unit, nothing else.

Past entries and their recorded results:
# Variant, Readout type, Value
data = [
    ("U7C U8A G9A U10A U11G C12U C13G", "aptazyme ON/OFF ratio", 1.17),
    ("U7G U10G C12G C13A", "aptazyme ON/OFF ratio", 1.21),
    ("U7A U8G G9A U10C C12G C13A", "aptazyme ON/OFF ratio", 1.19),
]

Pending variant:
Which aptazyme ON/OFF ratio value is on record for U7G U8A U10C U11G C13A ?
1.34
